Task for the reader: assign each of the following molecules its reported MBIC.
# Test system: Staphylococcus aureus
# protocol.details: Antimicrobial activity against Staphylococcus aureus ATCC 35556 assessed as inhibition of bacterial biofilm formation after 18 hrs by broth microdilution method in presence of 2 ug/ml fibrinogen
# Assay type: functional
Answers are plain numbers, in µM.

Take a look at these entries with their results.
{"columns": ["smiles.string", "result.number"],
 "data": [
  ["C=CCOc1cc(/C=C2\\SC(=S)N(c3ccc(F)cc3)C2=O)ccc1O", 3.125],
  ["CCOc1cc(/C=C2\\SC(=S)N(c3cccc(F)c3)C2=O)ccc1O", 6.25],
  ["CCOc1cc(/C=C2\\SC(=S)N(c3ccc(F)cc3)C2=O)ccc1O", 3.125]
]}

Now for another entry.
Return value of MBIC for input "CCOc1cc(/C=C2\SC(=S)N(c3cccnc3)C2=O)ccc1O" , no commentary.
12.5

====

# System: Staphylococcus aureus
# protocol.details: Antimicrobial activity against methicillin-susceptible Staphylococcus aureus on medical grade silicone disk assessed as inhibition of bacterial biofilm after 18 hrs by broth microdilution method
# Format: functional
reported.endpoint: MBIC90 (µM)
One number for each entry, in µM.

Take a look at these entries with their results.
{"columns": ["smiles.string", "units.of.measure", "MBIC90"],
 "data": [
  ["CCOc1cc(/C=C2\\SC(=S)N(c3cccc(F)c3)C2=O)ccc1O", "µM", 70.7],
  ["C=CCOc1cc(/C=C2\\SC(=S)N(c3ccc(F)cc3)C2=O)ccc1O", "µM", 100],
  ["CCOc1cc(/C=C2\\SC(=S)N(c3cccnc3)C2=O)ccc1O", "µM", 25]
]}

Now for another entry.
Return value of MBIC90 for input "CCOc1cc(/C=C2\SC(=S)N(c3ccc(F)cc3)C2=O)ccc1O" , no commentary.
79.4

====

# Test system: Staphylococcus aureus
# protocol.details: Antimicrobial activity against community acquired Staphylococcus aureus NCTC 8325 assessed as inhibition of bacterial biofilm after 18 hrs by broth microdilution method
# Assay type: functional
Task for the reader: assign each of the following compounds its reported MBIC.
Give bare numbers, in µM.

Take a look at these entries with their results.
{"columns": ["smiles.string", "MBIC / µM"],
 "data": [
  ["CCOc1cc(/C=C2\\SC(=S)N(c3cccc(F)c3)C2=O)ccc1O", 25],
  ["C=CCOc1cc(/C=C2\\SC(=S)N(c3ccc(F)cc3)C2=O)ccc1O", 14.9]
]}

Report MBIC for every entry below.
1. CCOc1cc(/C=C2\SC(=S)N(c3ccc(F)cc3)C2=O)ccc1O
2. CCOc1cc(/C=C2\SC(=S)N(c3cccnc3)C2=O)ccc1O

1. 25
2. 12.5

====

# System: Staphylococcus aureus
# protocol.details: Antimicrobial activity against Staphylococcus aureus ATCC 35556 assessed as inhibition of bacterial biofilm formation after 18 hrs by broth microdilution method in presence of 10 ug/ml fibrinogen
# Format: functional
reported.endpoint: MBIC (µM)
Give bare numbers, in µM.

Take a look at these entries with their results.
{"columns": ["smiles.string", "assayed.target", "MBIC, µM"],
 "data": [
  ["CCOc1cc(/C=C2\\SC(=S)N(c3cccnc3)C2=O)ccc1O", "Staphylococcus aureus", 12.5],
  ["C=CCOc1cc(/C=C2\\SC(=S)N(c3ccc(F)cc3)C2=O)ccc1O", "Staphylococcus aureus", 3.125],
  ["CCOc1cc(/C=C2\\SC(=S)N(c3cccc(F)c3)C2=O)ccc1O", "Staphylococcus aureus", 6.25]
]}

Now for another entry.
Return value of MBIC for input "CCOc1cc(/C=C2\SC(=S)N(c3ccc(F)cc3)C2=O)ccc1O" , no commentary.
3.125
